Tested on: A549-CANX-COX4
TEST PROTOCOL: lowest phenotypically active concentration; higher = less potent
MEASUREMENT SETUP: treatment time: 24 h
Structures can show the parent of a compound that is named as a salt.
MEASURED ATTRIBUTE: lowest phenotypically active concentration

Guide cases for lowest phenotypically active concentration, answers given:
Cc1cc(C)cc(C(=O)NOCCCCCC(=O)NO)c1: ≤ 0.3 µM
O=C1Cc2c([nH]c3ccc(Br)cc23)-c2ccccc2N1: 3 µM

lowest phenotypically active concentration lookup needed for "CC(C)(C)c1cc(/C=C(\C#N)C(N)=S)cc(C(C)(C)C)c1O" , thanks.
9 µM

lowest phenotypically active concentration lookup needed for "CN1CCC(=C2c3ccccc3CC(=O)c3sccc32)CC1" , thanks.
9 µM

lowest phenotypically active concentration lookup needed for CC(C)(N)c1cc(C(=O)N[C@@H]2CCc3ccc(OC4=C5CCC(=O)N=C5NC=C4)cc3C2)cc(C(F)(F)F)c1 [ML 786 dihydrochloride] , thanks.
1 µM

lowest phenotypically active concentration lookup needed for "COc1ccccc1S(=O)(=O)Nc1ccc2c(c1)CN(C)C(=O)N2" , thanks.
3 µM

lowest phenotypically active concentration lookup needed for "CO[C@@H]1[C@H](N(C)C(=O)c2ccccc2)C[C@H]2O[C@]1(C)n1c3ccccc3c3c4c(c5c6ccccc6n2c5c31)C(=O)NC4" , thanks.
≤ 0.3 µM

lowest phenotypically active concentration lookup needed for "COc1cc(N2CCC(N3CCN(C)CC3)CC2)ccc1Nc1ncnc(Nc2ccccc2S(=O)(=O)C(C)C)n1" , thanks.
9 µM

lowest phenotypically active concentration lookup needed for "COc1cc(/C=C/c2ccc(OC)cc2OC)cc(OC)c1" , thanks.
1 µM

Values from the supplement of paper PMC7411054
